The origin of these recorded values is ChEMBL document CHEMBL1156074.

# Tested on: Staphylococcus epidermidis
# measurementDescription: Antibacterial activity against Staphylococcus epidermidis after 18 hrs by broth microdilution method
# Type: functional
readout: MIC (µg/mL)
Quick note: give the figure in µg/mL, leave out the unit.

[
  {
    "recordSmiles": "CC(=O)N[C@H]1[C@H](O[C@@H]2c3ccc(c(Cl)c3)Oc3cc4cc(c3O)Oc3ccc(cc3Cl)C[C@H]3NC(=O)[C@H](n5cc(COc6ccc(-c7ccccc7)cc6)nn5)c5ccc(O)c(c5)Oc5cc(O)cc(c5)[C@H](NC3=O)C(=O)N[C@H]4C(=O)N[C@H]3C(=O)N[C@@H]2C(=O)N[C@@H](C(=O)O)c2cc(O)cc(O)c2-c2cc3ccc2O)O[C@H](CO)[C@@H](O)[C@@H]1O",
    "targetOrTestSystem": "Staphylococcus epidermidis",
    "readoutNumber": 0.5
  }
]

Turning now to a further record.
Tell us which MIC value is on record for COC(=O)[C@H]1NC(=O)[C@H]2NC(=O)[C@H](NC(=O)[C@@H]3NC(=O)[C@H]4NC(=O)[C@H](NC(=O)[C@H](N=[N+]=[N-])c5ccc(O)c(c5)Oc5cc4cc(O)c5C)[C@H](O)c4ccc(cc4)Oc4cc3cc(c4O)Oc3ccc(cc3)[C@H]2O)c2ccc(O)c(c2)-c2c(O)cc(O)cc21
16

###

A collection of compounds and their measured MIC
# Tested on: Staphylococcus aureus
# measurementDescription: Antibacterial activity against methicillin-sensitive Staphylococcus aureus ATCC 33591 after 18 hrs by broth microdilution method
# Assay type: functional
# recordedConditions: ATCC 33591, 18 h
Response body: numeric value in µg/mL, unit text excluded.

[
  {
    "recordSmiles": "CC(=O)N[C@H]1[C@H](O[C@@H]2c3ccc(c(Cl)c3)Oc3cc4cc(c3O)Oc3ccc(cc3Cl)C[C@H]3NC(=O)[C@H](N=[N+]=[N-])c5ccc(O)c(c5)Oc5cc(O)cc(c5)[C@H](NC3=O)C(=O)N[C@H]4C(=O)N[C@H]3C(=O)N[C@@H]2C(=O)N[C@@H](C(=O)O)c2cc(O)cc(O)c2-c2cc3ccc2O)O[C@H](CO)[C@@H](O)[C@@H]1O",
    "MIC [µg/mL]": 4
  }
]

Note: attention shifts to another entry.
Supply measured MIC of COC(=O)[C@@H]1NC(=O)[C@H]2NC(=O)[C@H](NC(=O)[C@@H]3NC(=O)[C@H]4NC(=O)[C@@H](Cc5ccc(c(Cl)c5)Oc5cc3cc(c5O)Oc3ccc(cc3Cl)[C@H]2O)NC(=O)[C@H](N=[N+]=[N-])c2ccc(O)c(c2)Oc2cc(O)cc4c2)c2ccc(O)c(c2)-c2c(O)cc(O)cc21 in your reply.
64

###

# Test system: Staphylococcus epidermidis
# measurementDescription: Antibacterial activity against Staphylococcus epidermidis after 18 hrs by broth microdilution method
# Assay type: functional
Measured MIC of individual entries

Some solved cases for reference:
[
  {
    "recordSmiles": "CCCCCCCCCCOCc1cn([C@H]2C(=O)N[C@@H]3Cc4ccc(c(Cl)c4)Oc4cc5cc(c4O)Oc4ccc(cc4Cl)[C@@H](O[C@@H]4O[C@H](CO)[C@@H](O)[C@H](O)[C@H]4NC(C)=O)[C@@H]4NC(=O)[C@H](NC(=O)[C@@H]5NC(=O)[C@@H](NC3=O)c3cc(O)cc(c3)Oc3cc2ccc3O)c2ccc(O)c(c2)-c2c(O)cc(O)cc2[C@H](C(=O)OC)NC4=O)nn1",
    "MIC": "1 µg/mL"
  },
  {
    "recordSmiles": "CCCCCCCCCCOCc1cn([C@H]2C(=O)N[C@@H]3Cc4ccc(c(Cl)c4)Oc4cc5cc(c4O)Oc4ccc(cc4Cl)[C@@H](O)[C@@H]4NC(=O)[C@H](NC(=O)[C@@H]5NC(=O)[C@@H](NC3=O)c3cc(O)cc(c3)Oc3cc2ccc3O)c2ccc(O)c(c2)-c2c(O)cc(O)cc2[C@H](C(=O)OC)NC4=O)nn1",
    "MIC": "16 µg/mL"
  }
]

# input for lookup
Given the molecule CCCCCCCCCCOCc1cn([C@H]2C(=O)N[C@H]3C(=O)N[C@H](C(=O)N[C@H]4C(=O)N[C@H]5C(=O)N[C@H](C(=O)N[C@@H](C(=O)OC)c6cc(O)cc(O)c6-c6cc5ccc6O)[C@H](O)c5ccc(cc5)Oc5cc4cc(c5O)Oc4ccc(cc4)[C@H]3O)c3cc(O)c(C)c(c3)Oc3cc2ccc3O)nn1 , write its reported MIC.
> 256 µg/mL

###

# Test system: Staphylococcus aureus
# measurementDescription: Antibacterial activity against methicillin-sensitive Staphylococcus aureus ATCC 33591 after 18 hrs by broth microdilution method
# Type: functional
# recordedConditions: ATCC 33591, 18 h
Measured MIC, listed per entry.
Supply the numeric figure in µg/mL, leaving out any unit text.

Example cases with answers are listed next.
[
  {
    "recordSmiles": "CC(=O)N[C@H]1[C@H](O[C@@H]2c3ccc(c(Cl)c3)Oc3cc4cc(c3O)Oc3ccc(cc3Cl)C[C@H]3NC(=O)[C@H](n5cc(COc6ccc(-c7ccccc7)cc6)nn5)c5ccc(O)c(c5)Oc5cc(O)cc(c5)[C@H](NC3=O)C(=O)N[C@H]4C(=O)N[C@H]3C(=O)N[C@@H]2C(=O)N[C@@H](C(=O)O)c2cc(O)cc(O)c2-c2cc3ccc2O)O[C@H](CO)[C@@H](O)[C@@H]1O",
    "MIC, µg/mL": 0.5
  },
  {
    "recordSmiles": "CCCCCCCCCCOCc1cn([C@H]2C(=O)N[C@@H]3Cc4ccc(c(Cl)c4)Oc4cc5cc(c4O)Oc4ccc(cc4Cl)[C@@H](O[C@@H]4O[C@H](CO)[C@@H](O)[C@H](O)[C@H]4NC(C)=O)[C@@H]4NC(=O)[C@H](NC(=O)[C@@H]5NC(=O)[C@@H](NC3=O)c3cc(O)cc(c3)Oc3cc2ccc3O)c2ccc(O)c(c2)-c2c(O)cc(O)cc2[C@H](C(=O)O)NC4=O)nn1",
    "MIC, µg/mL": 0.5
  }
]

// moving on: another record for MIC
Give a short answer stating reported MIC for CCCCCCCCCCOCc1cn([C@H]2C(=O)N[C@@H]3Cc4ccc(c(Cl)c4)Oc4cc5cc(c4O)Oc4ccc(cc4Cl)[C@@H](O[C@@H]4O[C@H](CO)[C@@H](O)[C@H](O)[C@H]4NC(C)=O)[C@@H]4NC(=O)[C@H](NC(=O)[C@@H]5NC(=O)[C@@H](NC3=O)c3cc(O)cc(c3)Oc3cc2ccc3O)c2ccc(O)c(c2)-c2c(O)cc(O)cc2[C@H](C(=O)OC)NC4=O)nn1 .
0.5

###

Reported MIC by item:
# Test system: Staphylococcus aureus
# measurementDescription: Antibacterial activity against methicillin-sensitive Staphylococcus aureus ATCC 33591 after 18 hrs by broth microdilution method
# Type: functional
# recordedConditions: ATCC 33591, 18 h
Number in µg/mL, nothing else.

[
  {
    "recordSmiles": "CCCCCCCCCCOCc1cn([C@H]2C(=O)N[C@@H]3Cc4ccc(c(Cl)c4)Oc4cc5cc(c4O)Oc4ccc(cc4Cl)[C@@H](O)[C@@H]4NC(=O)[C@H](NC(=O)[C@@H]5NC(=O)[C@@H](NC3=O)c3cc(O)cc(c3)Oc3cc2ccc3O)c2ccc(O)c(c2)-c2c(O)cc(O)cc2[C@H](C(=O)OC)NC4=O)nn1",
    "readoutNumber": 64
  }
]

Tell me MIC reported for COC(=O)[C@@H]1NC(=O)[C@H]2NC(=O)[C@H](NC(=O)[C@@H]3NC(=O)[C@H]4NC(=O)[C@@H](Cc5ccc(c(Cl)c5)Oc5cc3cc(c5O)Oc3ccc(cc3Cl)[C@H]2O[C@@H]2O[C@H](CO)[C@@H](O)[C@H](O)[C@H]2NC(C)=O)NC(=O)[C@H](N=[N+]=[N-])c2ccc(O)c(c2)Oc2cc(O)cc4c2)c2ccc(O)c(c2)-c2c(O)cc(O)cc21
4

###

# System: Enterococcus faecalis
# measurementDescription: Antibacterial activity against vancomycin-resistant and teicoplanin-sensitive Enterococcus faecalis ATCC 51299 harboring vanB gene after 18 hrs by broth microdilution method
# Assay type: functional
# recordedConditions: ATCC 51299, 18 h
readout: MIC

# example entries with known answers
[
  {
    "recordSmiles": "CCCCCCCCCCOCc1cn([C@H]2C(=O)N[C@@H]3Cc4ccc(c(Cl)c4)Oc4cc5cc(c4O)Oc4ccc(cc4Cl)[C@@H](O[C@@H]4O[C@H](CO)[C@@H](O)[C@H](O)[C@H]4NC(C)=O)[C@@H]4NC(=O)[C@H](NC(=O)[C@@H]5NC(=O)[C@@H](NC3=O)c3cc(O)cc(c3)Oc3cc2ccc3O)c2ccc(O)c(c2)-c2c(O)cc(O)cc2[C@H](C(=O)O)NC4=O)nn1",
    "MIC": "0.5 µg/mL"
  },
  {
    "recordSmiles": "CCCCCCCCCCOCc1cn([C@H]2C(=O)N[C@@H]3Cc4ccc(c(Cl)c4)Oc4cc5cc(c4O)Oc4ccc(cc4Cl)[C@@H](O[C@@H]4O[C@H](CO)[C@@H](O)[C@H](O)[C@H]4NC(C)=O)[C@@H]4NC(=O)[C@H](NC(=O)[C@@H]5NC(=O)[C@@H](NC3=O)c3cc(O)cc(c3)Oc3cc2ccc3O)c2ccc(O)c(c2)-c2c(O)cc(O)cc2[C@H](C(=O)OC)NC4=O)nn1",
    "MIC": "2 µg/mL"
  }
]

# input for lookup
Respond only with MIC recorded for CCCCCCCCCCOCc1cn([C@H]2C(=O)N[C@H]3C(=O)N[C@H](C(=O)N[C@H]4C(=O)N[C@H]5C(=O)N[C@H](C(=O)N[C@@H](C(=O)OC)c6cc(O)cc(O)c6-c6cc5ccc6O)[C@H](O)c5ccc(cc5)Oc5cc4cc(c5O)Oc4ccc(cc4)[C@H]3O)c3cc(O)c(C)c(c3)Oc3cc2ccc3O)nn1
> 256 µg/mL
